Below, each entry is listed with its recorded IC50.
target: Avi-KRAS G12R (1-169) GppNHp/RAF1 RBD-3xFLAG (52-151) (Homo sapiens, UniProt P01116, G12R); construct: Avi-KRAS G12R (1-169); experiment: Raf1-KRAS G12R-GppNHP disruption HTRF assay (Biological Example 1); assay type: binding; settings: KRAS G12R, GppNHp-loaded; Table 11
Sequence (P01116 1-169 isoform P01116-2 G12R): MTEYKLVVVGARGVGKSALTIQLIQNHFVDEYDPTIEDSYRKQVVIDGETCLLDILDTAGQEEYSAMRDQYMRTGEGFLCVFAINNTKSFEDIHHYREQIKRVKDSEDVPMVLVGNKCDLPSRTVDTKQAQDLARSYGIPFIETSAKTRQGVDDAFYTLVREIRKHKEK

Observe how each entry below is paired with its result.
CC(=O)N1CC[C@@H](N(C)c2nc(OC[C@@]34CCCN3C[C@H](F)C4)nc3c(F)c(-c4ccc(F)c5sc(N)c(C#N)c45)c(C(F)(F)F)cc23)[C@@H]1C [Compound 190]
100 to 1000 nM
N#Cc1c(N)sc2c(F)ccc(-c3c(C(F)(F)F)cc4c(N5CCC(F)CC5)nc(OC[C@@]56CCCN5C[C@H](F)C6)nc4c3F)c12 [Compound 151]
100 to 1000 nM
CN(c1nc(OC[C@@]23CCCN2C[C@H](F)C3)nc2c(F)c(-c3ccc(F)c4sc(N)c(C#N)c34)c(C(F)(F)F)cc12)C1(CO)CC1 [Compound 170]
100 to 1000 nM
CC(=O)N1CCN(c2nc(OC[C@@]34CCCN3C[C@H](F)C4)nc3c(F)c(-c4ccc(F)c5sc(N)c(C#N)c45)c(C(F)(F)F)cc23)[C@@H](C)C1 [Compound 230]
1000 to 10000 nM

Give the reported value of IC50 for this record: CN(c1nc(OC[C@@]23CCCN2C[C@H](F)C3)nc2c(F)c(-c3ccc(F)c4sc(N)c(C#N)c34)c(C(F)(F)F)cc12)[C@H]1CCS(=O)(=O)C1 [Compound 94]
100 to 1000 nM
